Form field: TGI (one value per entry).
Test system: OVCAR-5 ovarian
experimentalProtocol: NCI tumour cell line growth inhibition, 48 h

Below, each entry is followed by its recorded TGI result.
COc1ccc(C(Cl)=C(c2ccc(OCCN(C)C)cc2)c2ccc(OCCN(C)C)cc2)cc1    3.3 µM
CCNC1=C(NC(=O)CC)C(=O)c2ccccc2C1=O    > 100 µM
COC(=O)c1c(OC(C)=O)ccc2c1c1c(OC(C)=O)c3ccccc3c(OC(C)=O)c1n2Cc1ccccc1    19.8 µM

Q. Entry CCOC(=O)CSc1nnc(C(Sc2nc(-c3ccccc3)c(-c3ccccc3)[nH]2)C(C)C)n1-c1ccccc1 (centres undefined) has what TGI?
A. 28.5 µM

---

Parameter GI50, tested on U251 CNS, listed per item.

CC(=O)c1c(C(F)(F)F)n([O-])c2ccc(C)cc2[n+]1=O    2.79 µM

Q. Entry COc1ccc(/C=N/NC(=O)Cn2c(-c3ccc(S(C)(=O)=O)cc3)nc3cc(Cl)ccc32)cc1 has what GI50?
A. 1.16 µM

Q. Entry O=C(Oc1cccnc1)c1ccsc1Nc1ccnc(C(F)(F)F)c1 has what GI50?
A. 3.91 µM

Q. Entry O=c1[nH]cnc2c(C3NC(CO)C(O)C3O)c[nH]c12 (centres undefined) has what GI50?
A. > 100 µM

---

System: CCRF-CEM leukemia
experimentalProtocol: NCI tumour cell line growth inhibition, 48 h; in the data active = GI50 below about 0.43 µM; inactive = the rest
Outcomes you can answer with include only these: active, inactive

Example entries and their recorded answers appear below.
CN1CCC(n2cnc(-c3ccc(F)cc3)c2-c2ccnc(N)n2)CC1    inactive
CCN(Cc1ccc(Cl)s1)c1ccc(CO)c(Cl)c1    inactive
Nc1ccc(-c2nc3ccccc3[nH]2)c2ccccc12    inactive
CCN(CCO)CC(C)Nc1ccc([N+](=O)[O-])c2sc3ccccc3c(=O)c12 (stereo unspecified)    inactive
O=C(Oc1cccnc1)c1ccsc1Nc1ccnc(C(F)(F)F)c1    inactive

Next:
Q. Hey, what did the test say about COc1ccc(C(=O)N2c3ccccc3Sc3ccccc32)c(OC)c1 ?
A. active

---

Tested on: NCI-H522 lung
experimentalProtocol: NCI tumour cell line growth inhibition, 48 h
quantityKind: TGI

Below, each entry is followed by its recorded TGI result.
Cc1ccc(N=Nc2c(O)c(C(=O)Nc3ccccc3)cc3ccccc23)c([N+](=O)[O-])c1    > 100 µM
COC1O[C@@H]2C[C@H]3C(C)(C)CCC[C@]3(C)C3=CCCC1[C@@]32C (stereo partly drawn)    > 100 µM
COc1ccc(/C=C2\CN(C)C/C(=C\c3ccc(OC)c(OC)c3OC)C2=O)c(OC)c1OC    0.473 µM

Q. Entry O=C(/C=C/c1csc(-c2ccccc2)n1)NCc1ccc(C(=O)NCc2ccccc2)cc1 has what TGI?
A. > 100 µM

Q. Entry Cc1ccc(C2=Nc3ccccc3SC(c3cccc([N+](=O)[O-])c3)C2)cc1 (stereo not drawn) has what TGI?
A. 64.6 µM

Q. Entry CSCCC(NC(=O)Cc1ccc(C(=O)c2ccccc2)cc1)C(=O)O (stereo not drawn) has what TGI?
A. > 100 µM

Q. Entry Cc1cc(O)c(C(C)C)cc1C1(c2cc(C(C)C)c(O)cc2C)OC(=O)c2ccccc21 has what TGI?
A. 4.48 µM

Q. Entry COc1ccc2c(c1)CCN1CCc3cc(OC)c(OC)cc3CC21 (stereo not drawn) has what TGI?
A. > 10 µM

---

Form field: TGI (one value per entry).
Tested on: KM12 colon
experimentalProtocol: NCI tumour cell line growth inhibition, 48 h

Below, each entry is followed by its recorded TGI result.
CNc1ccc(N)cc1C(=O)N1CCC[C@H]1CO    > 100 µM
COc1cc(C(c2ccc3c(c2)OCO3)N2C(=O)CCC2C(=O)O)cc(OC)c1OC (stereo unspecified)    > 100 µM
O=C(Nc1cccc(Nc2ncc(Br)c(NCCc3cnc[nH]3)n2)c1)N1CCCC1    11.5 µM
Cc1ccc(/C(O)=C/C(=O)C(=O)NN=C(c2ccccc2)c2ccccc2)cc1    > 100 µM
CC1(C)N=C(N)N=C(N)N1c1ccc(CCCCc2ccc(S(=O)(=O)F)cc2)c(Cl)c1    15.2 µM

Q. Entry CC(C)CN=C(N)N=C(N)N has what TGI?
A. > 100 µM

---

System: A498 renal
experimentalProtocol: NCI tumour cell line growth inhibition, 48 h; in the data active = GI50 below about 0.43 µM; inactive = the rest
Outcomes you can answer with include only these: YES for active, NO for inactive

O=C1NC(=O)C(c2cccc(Cl)c2)=C1Nc1ccc(O)c(Cl)c1    NO
N#CN1CC[C@H](C(=O)Nc2ncc(-c3ccncc3)s2)C1    YES
O=C([CH-]C(=O)c1ccccc1)c1ccccc1.O=C([CH-]C(=O)c1ccccc1)c1ccccc1.[OH-].[OH-].[Ti+4]    NO
O=C(Nc1cccc(Nc2ncc(Br)c(NCCc3cnc[nH]3)n2)c1)N1CCCC1    NO
COc1cc(/C=C/[N+](=O)[O-])cc(Br)c1OC    NO

Q. Hey, what did the test say about COc1ccc(C(=O)N2c3ccccc3Sc3ccccc32)c(OC)c1 ?
A. YES

Q. Hey, what did the test say about CC(C)(C)c1ccc(C(=O)Nc2sc3c(c2C(N)=O)CCC(=O)C3)cc1 ?
A. NO

Q. Hey, what did the test say about Cc1c(C2=C(c3cn(C)c4ccccc34)C(=O)NC2=O)c2ccccc2n1C ?
A. NO

Q. Hey, what did the test say about CCn1c2ccccc2c2cc(/C=C(/C#N)C(N)=O)ccc21 ?
A. YES

Q. Hey, what did the test say about CCCCCn1sc(=O)n(Cc2ccc(CNC(=O)OCc3ccc4cccc(O)c4n3)cc2)c1=O ?
A. NO

---

Test system: A498 renal
experimentalProtocol: NCI tumour cell line growth inhibition, 48 h
quantityKind: TGI

Below, each entry is followed by its recorded TGI result.
CC1=NN(C(=O)CSc2nc3ccc(I)cc3c(=O)n2Cc2ccccc2)C(=O)C1    83.7 µM
Cc1c(C2=C(c3cn(C)c4ccccc34)C(=O)NC2=O)c2ccccc2n1C    11.2 µM

Q. Entry Nc1ccccc1SCc1csc(-c2ccc(Cl)cc2)n1 has what TGI?
A. 55.9 µM

Q. Entry CCCc1ccc(NCc2cc(OC)c(OC)c(OC)c2)cc1 has what TGI?
A. 98.6 µM

Q. Entry Cc1ccc(/C(O)=C/C(=O)C(=O)NN=C(c2ccccc2)c2ccccc2)cc1 has what TGI?
A. > 100 µM

Q. Entry COc1ccc(-c2cc(=O)c3c(OC)c(OC)c(OC)c(OC)c3o2)cc1 has what TGI?
A. 83.9 µM

Q. Entry N/N=C1\CC(=O)NC(=O)N1 has what TGI?
A. > 100 µM

Q. Entry COC(=O)C1=C(C)N2[C@H](C(=O)O)CO[C@@]2(C)[C@H](C(=O)OC)[C@H]1c1cccc([N+](=O)[O-])c1 has what TGI?
A. > 100 µM

Q. Entry BrCc1ccc(CBr)cc1 has what TGI?
A. 38.1 µM

Q. Entry COc1ccc2oc(=N)c(C(=O)Nc3ccccn3)cc2c1 has what TGI?
A. > 100 µM

Q. Entry CCOc1ccc(-n2nnc3c(N)nc(N)nc32)cc1 has what TGI?
A. > 100 µM

Q. Entry O=C(/C=C/c1csc(-c2ccccc2)n1)NCc1ccc(C(=O)NCc2ccccc2)cc1 has what TGI?
A. > 100 µM

Q. Entry CCC1(COC(NC(=O)c2ccccc2)(C(F)(F)F)C(F)(F)F)COC1 has what TGI?
A. > 100 µM

Q. Entry CCn1c2ccccc2c2cc(/C=C(/C#N)C(N)=O)ccc21 has what TGI?
A. 0.559 µM

Q. Entry CCOc1cc(NC(C)=O)ccc1C(=O)NN1C(=O)C(Cl)C1c1ccco1 (stereo not given) has what TGI?
A. 30.8 µM

---

Test system: MCF7 breast
experimentalProtocol: NCI tumour cell line growth inhibition, 48 h
Form field: TGI (one value per entry).

Below, each entry is followed by its recorded TGI result.
CC(C)(CC(O)C#N)/[N+]([O-])=[N+](\[O-])C(C)(C)CC(O)C#N (centres undefined)    65.5 µM
CCN(CC)CCNCc1cc(Cl)cc2c1OCOC2    > 10 µM
CCOC(=O)c1ccc(C(=O)C(C(C)=O)C(=O)OC(C)(C)C)[nH]1 (centres undefined)    > 100 µM
Cc1ccc(/C=C2\CCCC(CN3CCCCC3)C2=O)cc1 (centres undefined)    2.1 µM
CC1OC(O[C@H]2/C=C/C=C/C=C/C=C/C=C/C=C/C=C/[C@H](C)[C@@H](O)[C@@H](C)[C@H](C)OC(=O)CC(O)CC(O)CCC(O)C(O)CC(O)C[C@]3(O)C[C@H](O)C(C(=O)O)C(C2)O3)C(O)[C@H](N)C1O (some centres undefined)    19.7 µM

Q. Entry N/N=C1\CC(=O)NC(=O)N1 has what TGI?
A. > 100 µM

Q. Entry CC1(O)OC(=O)C2=C1CCC1C2CCC2(C)C(O)CCC12 (centres undefined) has what TGI?
A. > 100 µM

Q. Entry C[C@H]1C=C2[C@@H]3CC(C)(C(=O)O)CC[C@]3(C)CC[C@]2(C)[C@]2(C)CC[C@H]3C(C)(C)[C@@H](OC(=O)c4cccc5c(=O)c6ccccc6[nH]c45)CC[C@]3(C)[C@@H]12 (some centres undefined) has what TGI?
A. > 100 µM

Q. Entry COC1O[C@@H]2C[C@H]3C(C)(C)CCC[C@]3(C)C3=CCCC1[C@@]32C (some centres undefined) has what TGI?
A. > 100 µM

Q. Entry COc1ccc(CSc2ccccc2Cn2cccc2)cc1OC has what TGI?
A. > 100 µM

Q. Entry COc1ccc(C2[C@@H](Cl)C(=O)N2c2cc(OC)c(OC)c(OC)c2)cc1Cl (some centres undefined) has what TGI?
A. > 100 µM
